Answer each item with its documented Signal (peptides that bind to 23K21 and 8I10).
test system: HuM2e antibody 23K12; format: binding, human
Give only the figure.

382 (CSLLTECGSLLTEV; epitope peptide) [compound 382] yielded Signal (peptides that bind to 23K21 and 8I10) of 1393

636 (SLLTEVETPIRNEIGCRCNDSSD; epitope peptide) [compound 636] yielded Signal (peptides that bind to 23K21 and 8I10) of 768

319 (SLLTECGSLLTCV; epitope peptide) [compound 319] yielded Signal (peptides that bind to 23K21 and 8I10) of 1800

646 (SLLTEVEGPIRNEWGCRCNDSSD; epitope peptide) [compound 646] yielded Signal (peptides that bind to 23K21 and 8I10) of 763

436 (SLLTEVETPI; epitope peptide) [compound 436] yielded Signal (peptides that bind to 23K21 and 8I10) of 1084

679 (SLLTEVETPIRNEWGCECNDSSD; epitope peptide) [compound 679] yielded Signal (peptides that bind to 23K21 and 8I10) of 730

282 (CSCLCEVGMSCLCEC; epitope peptide) [compound 282] yielded Signal (peptides that bind to 23K21 and 8I10) of 2705

561 (SCLTEVETPIRNEWGCRCNDSSD; epitope peptide) [compound 561] yielded Signal (peptides that bind to 23K21 and 8I10) of 892

533 (CSLLTEVGSCLCEC; epitope peptide) [compound 533] yielded Signal (peptides that bind to 23K21 and 8I10) of 963

491 (SLLTEVETLIRNEWGCRCNDSSD; epitope peptide) [compound 491] yielded Signal (peptides that bind to 23K21 and 8I10) of 1109

384 (SLLTEVETPIRNEYGCRCNDSSD; epitope peptide) [compound 384] yielded Signal (peptides that bind to 23K21 and 8I10) of 1377

674 (SLLTEVETPIRNEWGCRCTDSSD; epitope peptide) [compound 674] yielded Signal (peptides that bind to 23K21 and 8I10) of 733

510 (SLRTEVETPIRNEWGCRCNDSSD; epitope peptide) [compound 510] yielded Signal (peptides that bind to 23K21 and 8I10) of 1047

486 (SLFTEVETPIRNEWGCRCNDSSD; epitope peptide) [compound 486] yielded Signal (peptides that bind to 23K21 and 8I10) of 1156

348 (SLLTECGCSLLTEV; epitope peptide) [compound 348] yielded Signal (peptides that bind to 23K21 and 8I10) of 1597

451 (CSLLTEVGMSLLTEC; epitope peptide) [compound 451] yielded Signal (peptides that bind to 23K21 and 8I10) of 1326

457 (SLLTEVETPMRNEWGCRCNDSSD; epitope peptide) [compound 457] yielded Signal (peptides that bind to 23K21 and 8I10) of 1281

553 (SLLTEVTTPIRNEWGCRCNDSSD; epitope peptide) [compound 553] yielded Signal (peptides that bind to 23K21 and 8I10) of 909

517 (SLLTEVETPIRNEMGCRCNDSSD; epitope peptide) [compound 517] yielded Signal (peptides that bind to 23K21 and 8I10) of 1020

* * *

test system: anti-M2 human monoclonal antibody Z3G1; format: binding
Assay readout: Signal (peptides that show specific binding to Z3G1)
Give only the figure.

1557 (CLCTCVGSLLCEV; epitope peptide) [compound 1557] yielded Signal (peptides that show specific binding to Z3G1) of 2246

1554 (SLLCEVGSLLCEV; epitope peptide) [compound 1554] yielded Signal (peptides that show specific binding to Z3G1) of 2399

506 (SLCTEVGSLLCEV; epitope peptide) [compound 506] yielded Signal (peptides that show specific binding to Z3G1) of 1863

213 (CETPIRNEWGSRSNDSCSLLTEVETC; epitope peptide) [compound 213] yielded Signal (peptides that show specific binding to Z3G1) of 1997

1568 (ILLTEVETPIRNEWGCRCNDSSD; epitope peptide) [compound 1568] yielded Signal (peptides that show specific binding to Z3G1) of 1044
